Target: hMC1-R (Homo sapiens, UniProt Q01726)
Construct: expressed in transfected cells; host or cells: CHO-K1
Sequence (Q01726 whole entry): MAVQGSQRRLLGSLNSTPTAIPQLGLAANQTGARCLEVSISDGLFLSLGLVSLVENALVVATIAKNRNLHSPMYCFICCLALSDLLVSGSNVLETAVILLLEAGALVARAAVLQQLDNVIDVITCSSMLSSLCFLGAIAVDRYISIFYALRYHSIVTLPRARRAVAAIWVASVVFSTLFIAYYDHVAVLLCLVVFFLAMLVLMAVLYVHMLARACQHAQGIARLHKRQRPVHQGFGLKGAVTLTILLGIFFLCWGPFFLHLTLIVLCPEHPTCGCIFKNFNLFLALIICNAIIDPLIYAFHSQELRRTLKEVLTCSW
Experiment: cyclic AMP bioassay, hMC1-R
Type: cell-based
Where a SMILES comes first, the peptide text is derived from it. Bridges are numbered along the chain shown (N, C = ends). [ ]: non-standard residue; d: D form. 1Nal = N[C@@H](Cc1cccc2ccccc12)C(=O)O; 2Nal = N[C@@H](Cc1ccc2ccccc2c1)C(=O)O; d2Nal = N[C@H](Cc1ccc2ccccc2c1)C(=O)O; Bta = N[C@@H](Cc1csc2ccccc12)C(=O)O
assay_endpoint: pEC50
Value format note: pEC50 is -log10 of concentration (mol/L); just state the number.

Previously resolved entries follow.
| molecule | target_of_assay | pEC50 |
| --- | --- | --- |
| CCCC[C@H](NC(C)=O)C(=O)N[C@H]1CSSC[C@@H](C(=O)NCCC(=O)NCC(=O)N[C@@H](CCCNC(=N)N)C(=O)N[C@@H](CCCCN)C(=O)N[C@@H](CCCNC(=N)N)C(=O)N[C@@H](CCCNC(=N)N)C(=O)N[C@@H](CCCNC(=N)N)C(=O)N[C@@H](CCC(N)=O)C(=O)N[C@@H](CCCNC(=N)N)C(=O)N[C@@H](CCCNC(=N)N)C(=O)N[C@@H](CCCNC(=N)N)C(N)=O)NC(=O)[C@H](Cc2c[nH]c3ccccc23)NC(=O)[C@H](CCCNC(=N)N)NC(=O)[C@@H](Cc2ccccc2)NC(=O)[C@H](Cc2c[nH]cn2)NC(=O)[C@@H](C)NC1=O | hMC1-R (Homo sapiens, UniProt Q01726) | 8.55 |
| CCCC[C@H](NC(C)=O)C(=O)N[C@H]1CSSC[C@@H](C(=O)NCCC(=O)N[C@@H](CCCNC(=N)N)C(=O)N[C@@H](CCCNC(=N)N)C(=O)N[C@@H](CCCCN)C(=O)N[C@@H](CCCNC(=N)N)C(=O)N[C@@H](CCCNC(=N)N)C(=O)N[C@@H](CCC(N)=O)C(=O)N[C@@H](CCCNC(=N)N)C(=O)N[C@@H](CCCNC(=N)N)C(=O)N[C@@H](CCCNC(=N)N)C(N)=O)NC(=O)[C@H](Cc2c[nH]c3ccccc23)NC(=O)[C@H](CCCNC(=N)N)NC(=O)[C@@H](Cc2ccccc2)NC(=O)[C@H](Cc2c[nH]cn2)NC(=O)[C@@H](C)NC1=O | hMC1-R (Homo sapiens, UniProt Q01726) | 8.73 |
| CCCC[C@H](NC(C)=O)C(=O)N[C@H]1CSSC[C@@H](C(=O)NCCC(=O)NCC(=O)N[C@@H](CCCNC(=N)N)C(=O)N[C@@H](CCCNC(=N)N)C(=O)N[C@@H](CCCCN)C(=O)N[C@@H](CCCNC(=N)N)C(=O)N[C@@H](CCCNC(=N)N)C(=O)N[C@@H](CCC(N)=O)C(=O)N[C@@H](CCCNC(=N)N)C(=O)N[C@@H](CCCNC(=N)N)C(=O)N[C@@H](CCCNC(=N)N)C(N)=O)NC(=O)[C@H](Cc2c[nH]c3ccccc23)NC(=O)[C@H](CCCNC(=N)N)NC(=O)[C@@H](Cc2ccccc2)NC(=O)[C@H](Cc2c[nH]cn2)NC(=O)[C@@H](C)NC1=O | hMC1-R (Homo sapiens, UniProt Q01726) | 8.63 |
| CC(=O)N[C@H]1CSSC[C@@H](C(=O)N2CCC[C@H]2C(=O)N2CCC[C@H]2C(=O)N[C@@H](CCCCN)C(=O)N[C@@H](CC(=O)O)C(N)=O)NC(=O)[C@H](C)NC(=O)[C@H](Cc2ccc3ccccc3c2)NC(=O)[C@H](CCCNC(=N)N)NC(=O)[C@@H](Cc2ccc3ccccc3c2)NC(=O)[C@H](Cc2c[nH]cn2)NC(=O)[C@H](CCC(=O)O)NC1=O (Ac-CEH[d2Nal]R[2Nal]ACPPKD-NH2; disulfide 1-8) | hMC1-R (Homo sapiens, UniProt Q01726) | 7.47 |

Item CC(=O)N[C@H]1CSSC[C@@H](C(=O)N2CCC[C@H]2C(=O)N2CCC[C@H]2C(=O)N[C@@H](CCCCN)C(=O)N[C@@H](CC(=O)O)C(N)=O)NC(=O)[C@H](C)NC(=O)[C@H](Cc2cccc3ccccc23)NC(=O)[C@H](CCCNC(=N)N)NC(=O)[C@@H](Cc2ccc3ccccc3c2)NC(=O)[C@H](Cc2c[nH]cn2)NC(=O)[C@H](CCC(=O)O)NC1=O (Ac-CEH[d2Nal]R[1Nal]ACPPKD-NH2; disulfide 1-8) with hMC1-R (Homo sapiens, UniProt Q01726) - pEC50? 6.57

Item CC(=O)N[C@H]1CSSC[C@@H](C(=O)N2CCC[C@H]2C(=O)N2CCC[C@H]2C(=O)N[C@@H](CCCCN)C(=O)N[C@@H](CC(=O)O)C(N)=O)NC(=O)[C@H](C)NC(=O)[C@H](Cc2csc3ccccc23)NC(=O)[C@H](CCCNC(=N)N)NC(=O)[C@@H](Cc2ccc3ccccc3c2)NC(=O)[C@H](Cc2c[nH]cn2)NC(=O)[C@H](CCC(=O)O)NC1=O (Ac-CEH[d2Nal]R[Bta]ACPPKD-NH2; disulfide 1-8) with hMC1-R (Homo sapiens, UniProt Q01726) - pEC50? 6.16
